- TARGET ENTITY: cyclin E/CDK2 enzyme (Homo sapiens, UniProt P24941)
- Construct: made in house; host or cells: Sf9 insect cells, recombinant baculovirus
- EXPERIMENT: CDK2 ELISA kinase assay (phospho-Rb ser 795 detection)
- Assay type: biochemical
- TEST PARAMETERS: In Vitro Enzyme Assays, read-out: CDK2 IC50
// values below are reported IC50

The following compounds have reported results that may help.
CN(C)C(=O)C1CCN(c2ccc(N/C=C3\C(=O)NC(=O)c4ccc(I)cc43)cc2)CC1; > 50 µM
Nc1ccc(CN/C=C2\C(=O)NC(=O)c3ccc(I)cc32)cc1O; 1.6 µM
CN(C)CC1CCN(c2ccc(N/C=C3\C(=O)NC(=O)c4ccc(I)cc43)cc2)CC1; > 50 µM

Which IC50 is reported for this compound? CC1CN(C)[C@H](C)CN1c1ccc(N/C=C2\C(=O)NC(=O)c3ccc(I)cc32)cc1 (stereo in doubt)
> 50 µM

If you can, please state the reported IC50 value of COc1cc(CN/C=C2\C(=O)NC(=O)c3ccc(-c4ccc(Oc5ccccc5)cc4)cc32)cc(O)c1OC .
> 50 µM

Fill in the blank: the reported IC50 of COc1ccc(CN/C=C2\C(=O)NC(=O)c3ccc(-c4cn[nH]c4)cc32)cc1O is ____.
0.43 µM

I would be grateful if you could share the reported IC50 for CN1CCN(c2ccc(N/C=C3\C(=O)NCc4ccccc43)cc2)CC1 .
> 29 µM

Fill blank: measured IC50 of the compound CN1CCC(c2ccc(N/C=C3\C(=O)NC(=O)c4ccc(I)cc43)cc2)CC1 is ____.
4.2 µM

Which IC50 value is on record for CN1CCN(c2ccc(N/C=C3\C(=O)NC(=O)c4ccc(-c5ccc(F)cc5)cc43)cc2F)CC1 ?
> 50 µM

Quick one: IC50 for O=C1NC(=O)c2ccc(Br)cc2/C1=C/NCCCN1CCOCC1 ?
> 50 µM

What does the record list as IC50 for CN1CCCC1c1ccc(N/C=C2\C(=O)NC(=O)c3ccc(-c4cccs4)cc32)cc1 (stereo not shown) ?
> 50 µM

Entry CN1CCN(C2CCC(NC=C3C(=O)NC(=O)c4ccc(I)cc43)CC2)CC1 (stereo not shown) has what IC50?
> 50 µM

Entry under review: O=C1NC(=O)c2ccc(I)cc2/C1=C/NCc1ccc(Cl)c(O)c1 . Reported IC50?
18.9 µM

Can you share its IC50? I mean this compound: CC(=O)Oc1cc(CNC=C2C(=O)NC(=O)c3ccc(Br)cc32)cc(OC(C)=O)c1
44.5 µM

Consider the compound CN1CCC(c2ccc(N/C=C3\C(=O)NC(=O)c4ccc(-c5ccsc5)cc43)cc2)CC1 and give its measured IC50.
> 50 µM

What measured IC50 goes with CN1CCN(c2ccc(N/C=C3\C(=O)NC(=O)c4ccc(-c5ccc(OC(F)(F)F)cc5)cc43)cc2)CC1 ?
> 50 µM

* * *

- TARGET ENTITY: cyclin D1/cdk 4 enzyme (Homo sapiens, UniProt P11802)
- Construct: made in house; host or cells: Sf9 insect cells, recombinant baculovirus
- Sequence (P11802 whole entry, species assumed): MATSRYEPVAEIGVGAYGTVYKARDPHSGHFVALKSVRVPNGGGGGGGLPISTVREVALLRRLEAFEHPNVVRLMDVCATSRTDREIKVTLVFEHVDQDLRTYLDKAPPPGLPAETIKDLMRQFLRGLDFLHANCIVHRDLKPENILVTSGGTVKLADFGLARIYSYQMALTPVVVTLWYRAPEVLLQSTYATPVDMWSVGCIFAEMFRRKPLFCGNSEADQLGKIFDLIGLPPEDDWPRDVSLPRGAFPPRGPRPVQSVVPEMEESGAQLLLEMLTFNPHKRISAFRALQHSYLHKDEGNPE
- Sequence (P24385 whole entry partner, species assumed): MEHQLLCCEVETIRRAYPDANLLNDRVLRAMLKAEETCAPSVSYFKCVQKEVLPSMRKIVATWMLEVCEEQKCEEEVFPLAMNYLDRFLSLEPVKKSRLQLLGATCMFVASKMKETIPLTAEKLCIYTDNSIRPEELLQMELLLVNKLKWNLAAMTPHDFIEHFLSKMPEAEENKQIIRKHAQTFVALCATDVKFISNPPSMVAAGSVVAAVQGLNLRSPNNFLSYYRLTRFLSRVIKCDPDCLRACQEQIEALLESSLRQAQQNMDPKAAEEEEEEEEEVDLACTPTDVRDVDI
- EXPERIMENT: CDK4 ELISA kinase assay (phospho-Rb ser 795 detection)
- Format: biochemical
- TEST PARAMETERS: In Vitro Enzyme Assays, 200 μM ATP, read-out: CDK4 IC50
pIC50: −log10 of the molar value.
1 (yes) means recorded pIC50 is 6 or above; 0 (no) means it is below 6.

O=C1NCc2ccccc2C1=CNc1ccc(CN2CCCCC2)cc1; 0 (no)
CO[C@H]1CCN(Cc2ccc(N/C=C3\C(=O)NC(=O)c4ccc(-c5ccc(F)cc5)cc43)cc2)C1; 1 (yes)
Cl.O=C1NC(=O)c2ccc(Br)cc2C1=NNc1ccc(CN2CCCCC2)cc1 [Example 144, Hydrochloride]; 0 (no)
CN1CCC(Oc2ccc(N/C=C3\C(=O)NC(=O)c4ccc(Br)cc43)cc2)C1 (centres unmarked); 0 (no)
O=C1NC(=O)c2ccc(I)cc2/C1=C/Nc1ccc(N2CCN(Cc3ccco3)CC2)cc1; 0 (no)

Record C[C@@H]1CN(c2ccc(N/C=C3\C(=O)NC(=O)c4ccc(Br)cc43)cc2)C[C@H](C)N1C ; criterion: pIC50 no lower than 6. Met?
0 (no)

* * *

Each item that follows carries a reported IC50.
- TARGET ENTITY: cyclin B/CDK1 enzyme (Homo sapiens, UniProt P06493)
- Construct: purchased New England BioLabs; host or cells: Sf9 insect cells, recombinant baculovirus
- Sequence (P06493 whole entry): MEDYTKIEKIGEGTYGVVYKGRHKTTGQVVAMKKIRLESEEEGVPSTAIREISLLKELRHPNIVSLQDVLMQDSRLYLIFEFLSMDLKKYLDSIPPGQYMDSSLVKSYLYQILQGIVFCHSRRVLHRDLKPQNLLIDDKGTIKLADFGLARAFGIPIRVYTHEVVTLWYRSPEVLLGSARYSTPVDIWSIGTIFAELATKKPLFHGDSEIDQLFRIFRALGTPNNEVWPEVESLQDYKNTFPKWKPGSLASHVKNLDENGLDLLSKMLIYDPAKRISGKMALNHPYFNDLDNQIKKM
- Sequence (P14635 whole entry partner): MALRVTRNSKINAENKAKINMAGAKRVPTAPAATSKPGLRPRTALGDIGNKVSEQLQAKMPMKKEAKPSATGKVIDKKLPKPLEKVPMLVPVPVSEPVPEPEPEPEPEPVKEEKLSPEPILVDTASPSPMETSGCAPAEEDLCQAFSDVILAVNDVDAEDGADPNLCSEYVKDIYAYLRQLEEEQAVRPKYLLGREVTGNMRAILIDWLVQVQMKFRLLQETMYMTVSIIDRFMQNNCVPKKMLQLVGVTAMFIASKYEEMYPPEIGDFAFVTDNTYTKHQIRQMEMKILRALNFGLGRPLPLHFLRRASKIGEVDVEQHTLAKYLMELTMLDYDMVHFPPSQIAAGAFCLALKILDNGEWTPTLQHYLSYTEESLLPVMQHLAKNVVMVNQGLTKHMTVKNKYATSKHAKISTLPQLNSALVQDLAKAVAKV
- EXPERIMENT: CDK1 ELISA kinase assay (phospho-Rb ser 795 detection)
- Assay type: biochemical
- TEST PARAMETERS: CDK1 IC50, In Vitro Enzyme Assays

Known IC50 results, listed for orientation:
CC(C)[Si](Oc1cc(CN/C=C2\C(=O)NC(=O)c3ccc(I)cc32)ccc1N)(C(C)C)C(C)C; > 50 µM
CCN(CC)C(=O)Oc1cc(CN/C=C2\C(=O)NC(=O)c3ccc(I)cc32)ccc1OC; > 50 µM

IC50 lookup needed for CC(C)[Si](Oc1cc(CN/C=C2\C(=O)NC(=O)c3ccc(Br)cc32)ccc1N)(C(C)C)C(C)C , thanks.
33.9 µM

* * *

- EXPERIMENT: I.V. and P.O. Dosing in Mice
- Assay type: in vivo
- TEST PARAMETERS: mouse, in vivo, po, 50 mg/kg, po 50 mg/kg vs i.v. 2 mg/kg
QUANTITY MEASURED: bioavailability
Show the value, then the unit it is measured in.

CCCOc1cnc(CN/C=C2\C(=O)NC(=O)c3ccc(C(C)(C)C)cc32)cc1O [Example 530]; 13%
O=C1NC(=O)c2ccc(I)cc2/C1=C/NCc1ccn(-c2ccsc2)c(=O)c1 [Example 539]; 0.12%
CN1CCN(c2ccc(N/C=C3\C(=O)NC(=O)c4ccc(-c5ccsc5)cc43)cc2)CC1 [Example 107]; 18.2%
O=C1NC(=O)c2ccc(I)cc2/C1=C/NCc1ccc(-c2ccoc2)c(O)c1 [Example 506]; 53%

Please report the recorded bioavailability for CC(C)(C)c1ccc2c(c1)/C(=C/NCc1cc(O)c(-c3ccccc3)cn1)C(=O)NC2=O [Example 531] .
2.5%

// lookup bioavailability for CC(C)(C)c1ccc2c(c1)/C(=C/NCc1ccc(-c3ccoc3)c(O)c1)C(=O)NC2=O [Example 535]
21%

Query: bioavailability; subject: CCCOc1ccc(CN/C=C2\C(=O)NC(=O)c3ccc(I)cc32)cc1O [Example 178]
14%

What measured bioavailability goes with CCCOc1cnc(CN/C=C2\C(=O)NC(=O)c3ccc(C4CCCC4)cc32)cc1O [Example 538] ?
0.63%

May I ask what bioavailability has been recorded for O=C1NC(=O)c2ccc(I)cc2/C1=C/NCc1cc(O)c(-c2ccccc2)cn1 [Example 524] ?
0%

* * *

- TARGET ENTITY: cyclin D1/cdk 4 enzyme (Homo sapiens)
- Construct: made in house; host or cells: Sf9 insect cells, recombinant baculovirus
- EXPERIMENT: CDK4 ELISA kinase assay (phospho-Rb ser 795 detection)
- Format: biochemical
- TEST PARAMETERS: In Vitro Enzyme Assay, cyclin D1/cdk 4, read-out: CDK4 IC50
QUANTITY MEASURED: pIC50
Interpret pIC50 as the negative base-10 log of the concentration measured in mol/L.

Study these solved cases before continuing.
NS(=O)(=O)c1ccc(CNC=C2C(=O)NC(=O)c3ccc(-c4ccc(-c5ccccc5)cc4)cc32)cc1 [Example 757]; 4.51
CCN(CC)CCNC(=O)c1ccc(NC=C2C(=O)NC(=O)c3ccccc32)cc1 [Example 543]; 4.37
O=C1NC(=O)c2ccc(-c3ccc(C(=O)O)cc3)cc2C1=CNCc1ccc(O)c(O)c1 [Example 770]; 7.05
O=C1NC(=O)c2ccc(-c3ccc(OC(F)(F)F)cc3)cc2C1=CNCc1ccc(O)c(O)c1 [Example 818]; 6.10
CC(C)N1CCN(c2ccc(NC=C3C(=O)NC(=O)c4ccccc43)cc2)CC1 [Example 600]; 4.64

Consider the molecule CN1CCCC1c1ccc(N/C=C2\C(=O)NC(=O)c3ccc(-n4cccc4)cc32)nc1 (stereo not shown) [Example 459] and give its measured pIC50.
5.43

For the molecule COc1ccc(CNC=C2C(=O)NC(=O)c3ccc(C=Cc4ccncc4)cc32)cc1O [Example 824] , what pIC50 is on record?
8.00

// returns reported pIC50 for input CN1CCN(c2ccc(NC=C3C(=O)NC(=O)c4ccc(-c5ccc(CCC(=O)O)cc5)cc43)cc2)CC1 [Example 809]
4.86

Consider the molecule CN1CCN(c2ccc(NC=C3C(=O)NC(=O)c4ccc(-c5ccn(CC(N)=O)c5)cc43)cc2)CC1 [Example 853] and give its measured pIC50.
6.92

// lookup pIC50 for CCN(CC)CCOC=Cc1ccc2c(c1)C(=CNc1ccc(N3CCN(C)CC3)cc1)C(=O)NC2=O [Example 794]
4.38

Could you share which pIC50 value was measured for N#CCc1ccc(NC=C2C(=O)NC(=O)c3ccc(C=Cn4ccnc4)cc32)cc1 [Example 651] ?
5.52

State the recorded pIC50 for this entry: O=C1NC(=O)c2ccccc2C1=CNc1ccc(N2CCN(CCO)CC2)cc1 [Example 598]
4.48

Could you share which pIC50 value was measured for NS(=O)(=O)c1ccc(CNC=C2C(=O)NC(=O)c3ccc(-c4csc5ccccc45)cc32)cc1 [Example 636] ?
5.47

Would you mind telling me what pIC50 value was observed for CN1CCN(c2ccc(N/C=C3\C(=O)NC(=O)c4ccc(-c5ccoc5)cc43)c(F)n2)CC1 [Example 497] ?
6.43

Which pIC50 value is on record for NS(=O)(=O)c1ccc(CNC=C2C(=O)NC(=O)c3ccc(-c4cccc(C(F)(F)F)c4)cc32)cc1 [Example 744] ?
4.31

Give its pIC50 value. Item: CN1CCN(c2ccc(NC=C3C(=O)NC(=O)c4ccc(C=CCCC(=O)O)cc43)cc2)CC1 [Example 795]
4.62
